# experimental_target: STING WT variant (Homo sapiens)
# Construct: host or cells: HEK-Blue ISG KO-STING cells (Invivogen, hkb-kostg)
# assay_summary: SEAP reporter assay in HEK-Blue ISG KO-STING cells transfected with STING WT variant (Method 2)
# Type: cell-based
# Set-up: key: ratio of compound SEAP signal to 0.5% DMSO
# condition_context: 1 ng STING vector (WT variant), compound 2.5 uM, 24 h, SEAP signal vs 0.5% DMSO
// reported Fold change related to DMSO control WT per item
measured_metric: Fold change related to DMSO control WT

# molecule, measured_metric, measured
measured = [
    ("CCn1nc(C)cc1C(=O)Nc1nc2cc(C(N)=O)cc(OCCCNC(=O)CN3CC(OC)C3)c2n1CCC[C@H]1COc2cc(C(N)=O)cc3nc(NC(=O)c4cc(C)nn4CC)n1c23", "Fold change related to DMSO control WT", 7.12),
    ("CCn1nc(C)cc1C(=O)Nc1nc2cc(C(N)=O)cc(OCCCNC(=O)CN(C)C)c2n1CCC[C@H]1COc2cc(C(N)=O)cc3nc(NC(=O)c4c(Cl)c(C)nn4CC)n1c23", "Fold change related to DMSO control WT", 13.02),
    ("CCn1nc(C)cc1C(=O)Nc1nc2cc(C#N)cc(OCCCNC(=O)CN3CCOCC3)c2n1CCC[C@H]1COc2cc(C(N)=O)cc3nc(NC(=O)c4cc(C)nn4CC)n1c23", "Fold change related to DMSO control WT", 10.68),
    ("CCn1nc(C)cc1C(=O)Nc1nc2cc(C(N)=O)cc(OCCCOC)c2n1CCC[C@H]1COc2cc(C(N)=O)cc3nc(NC(=O)c4cc(C)nn4CC)n1c23", "Fold change related to DMSO control WT", 13.65),
    ("CCn1nc(C)cc1C(=O)Nc1nc2cc(C(N)=O)cc(OCCCNC(=O)CN3CCC(OC)CC3)c2n1CCC[C@H]1COc2cc(C(N)=O)cc3nc(NC(=O)c4cc(C)nn4CC)n1c23", "Fold change related to DMSO control WT", 10.04),
]
